Value source: patent US20050234065A1

# TGT: DPP-IV (Homo sapiens, UniProt P27487)
# Construct: purchased Enzyme Systems Products SPE-01
# Sequence (P27487 whole entry, species assumed): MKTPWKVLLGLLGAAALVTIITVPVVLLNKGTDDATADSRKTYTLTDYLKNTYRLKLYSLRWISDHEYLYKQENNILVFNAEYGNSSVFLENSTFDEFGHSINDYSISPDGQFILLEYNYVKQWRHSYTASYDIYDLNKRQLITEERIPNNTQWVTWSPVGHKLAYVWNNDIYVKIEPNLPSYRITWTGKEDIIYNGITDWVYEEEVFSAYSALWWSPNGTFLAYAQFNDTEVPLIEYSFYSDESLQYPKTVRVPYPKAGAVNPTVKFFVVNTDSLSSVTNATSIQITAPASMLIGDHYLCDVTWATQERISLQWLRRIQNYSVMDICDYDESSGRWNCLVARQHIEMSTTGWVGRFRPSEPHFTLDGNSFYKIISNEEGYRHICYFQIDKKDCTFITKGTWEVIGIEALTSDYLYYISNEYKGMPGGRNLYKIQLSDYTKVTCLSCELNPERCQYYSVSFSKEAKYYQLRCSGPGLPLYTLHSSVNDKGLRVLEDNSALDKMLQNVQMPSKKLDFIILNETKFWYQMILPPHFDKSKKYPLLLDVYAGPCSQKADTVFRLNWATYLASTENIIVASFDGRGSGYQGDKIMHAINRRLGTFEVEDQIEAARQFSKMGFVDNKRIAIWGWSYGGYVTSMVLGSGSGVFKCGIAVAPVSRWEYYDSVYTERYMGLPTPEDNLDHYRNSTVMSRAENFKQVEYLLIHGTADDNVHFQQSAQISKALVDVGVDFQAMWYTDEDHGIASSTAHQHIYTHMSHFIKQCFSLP
# EXPERIMENT: In vitro assay for dipeptidyl peptidase inhibition
# Type: biochemical
# CONDITION DETAILS: hydrochloride salts; Gly-Pro-4-methoxy B naphthylamide substrate; overnight at 37° C.; read-out: IC50 (concentration of test compound required for 50% inhibition)
pIC50: −log10 of the molar value.
ENDPOINT: pIC50

Solved cases (4 shown):
N[C@H](C(=O)N1CCCC1)[C@H]1CC[C@H](N2Cc3sccc3C2=O)CC1 [Example 41]; ≥ 7.00
N[C@H](C(=O)N1CCCC1)[C@H]1CC[C@H](N2Cc3ccccc3S2(=O)=O)CC1 [Example 50]; ≥ 7.00
N[C@H](C(=O)N1CC[C@@H](F)C1)[C@H]1CC[C@H](NC(=O)c2cccc(O)n2)CC1 [Example 52]; ≥ 7.00
N#C[C@@H]1CCCN1C(=O)[C@@H](N)[C@H]1CC[C@H](NC(=O)c2cn3cccc3cn2)CC1 [Example 56]; ≥ 7.00

// returns reported pIC50 for input N[C@H](C(=O)N1CCCC1)[C@H]1CC[C@H](NC(=O)CN2C(=O)c3ccccc3/C2=C\c2ccccc2)CC1 [Example 20]
≥ 7.00

// returns reported pIC50 for input N[C@H](C(=O)N1CCCC1)[C@H]1CC[C@@H](NC(=O)CCC2C(=O)OCN2C(=O)OCc2ccccc2)CC1 (stereo in doubt) [Example 4]
6.30 to 7.00

---

# TGT: DPP-IV (Homo sapiens)
# Construct: purchased Enzyme Systems Products SPE-01
# EXPERIMENT: In vitro assay for dipeptidyl peptidase inhibition
# Format: biochemical
# CONDITION DETAILS: hydrochloride salts; Gly-Pro-4-methoxy B naphthylamide substrate; overnight at 37° C.; read-out: IC50 (concentration of test compound required for 50% inhibition)
# Method: 150 μL of an enzyme-substrate solution was pipetted into microtiter wells of a polystyrene 96-well plate, and maintained at 4° C. The enzyme-substrate solution comprised 50 μM Gly-Pro-4-methoxy B naphthylamide HCl in 50 mM Tris assay buffer pH 7.3 containing 0.1M sodium chloride, 0.1% (v/v) Triton and 50 μU/mL DPP-IV (Enzyme Systems Products Cat#SPE-01, DPP-IV 5 mU/mL stock). […]
pIC50: −log10 of the molar value.
Some compounds, each annotated with its measured pIC50.

Solved cases (3 shown):
Nc1nccnc1C(=O)N[C@H]1CC[C@H]([C@H](N)C(=O)N2CC[S+]([O-])C2)CC1 (stereo partly shown); 6.30 to 7.00
N#C[C@@H]1CCCN1C(=O)[C@@H](N)[C@H]1CC[C@H](N2Cc3ncccc3C2=O)CC1; ≥ 7.00
N[C@H](C(=O)N1CCCC1)[C@H]1CC[C@H](NC(=O)CC[C@H]2C(=O)OCN2C(=O)OCc2ccccc2)CC1; ≥ 7.00

Now turn to the next compound.
// returns reported pIC50 for input N[C@H](C(=O)N1CCCC1)[C@H]1CC[C@H](NC(=O)N2CCC[C@H]2COCc2ccccc2)CC1
≥ 7.00

---

Some compounds, each annotated with its measured IC50.
# TGT: DPP-IV (Homo sapiens)
# Construct: purchased Enzyme Systems Products SPE-01
# EXPERIMENT: In vitro assay for dipeptidyl peptidase inhibition
# Type: biochemical
# CONDITION DETAILS: hydrochloride salts; Gly-Pro-4-methoxy B naphthylamide substrate; overnight at 37° C.; read-out: IC50 (concentration of test compound required for 50% inhibition)

Solved cases (3 shown):
N[C@H](C(=O)N1CCCC1)[C@H]1CC[C@H](N2Cc3ncccc3C2=O)CC1; ≤ 100 nM
N[C@H](C(=O)N1CCCC1)[C@H]1CC[C@H](NC(=O)c2nccnc2NCCc2ccccc2)CC1; ≤ 100 nM
N[C@H](C(=O)N1CCCC1)[C@H]1CC[C@H](N2Cc3nccnc3C2=O)CC1; ≤ 100 nM

Now turn to the next compound.
Please tell me: IC50 of N[C@H](C(=O)N1CCCC1)[C@H]1CC[C@H](NC(=O)[C@@H]2COCN2C(=O)OCc2ccccc2)CC1 , system DPP-IV (Homo sapiens)?
≤ 100 nM
